# target or test system: FL hMALT1 enzyme (Homo sapiens)
# assay overview: biochemical
Task for the reader: assign each of the following compounds its reported pIC50.
Give bare numbers, as −log10 of the molar value.

// known answers, use as guide
>>> print(df.to_string())
                                   compound            target_or_test_system  value_type  reported
0  CN(C(=O)C1CCS(=O)(=O)CC1)[C@@H](c1ccc(NC2Cc3ccc(Cl)c(Cl)c3C2)nc1)C(F)(F)F (single isomer, unassigned) [Example 344]  FL hMALT1 enzyme (Homo sapiens)       pIC50      6.51
1  CN(C(=O)c1cc[nH]c(=O)c1)C(c1ccc(NC2Cc3ccccc3C2(C)C)cn1)C(F)(F)F (single isomer, unassigned) [Example 98]  FL hMALT1 enzyme (Homo sapiens)       pIC50      6.23
2  CN(C(=O)C1CN(S(C)(=O)=O)C1)[C@@H](c1ccc(NC2Cc3ccccc3C2(C)C)cc1)C(F)(F)F (single isomer, unassigned) [Example 68]  FL hMALT1 enzyme (Homo sapiens)       pIC50      7.82
3  CC(=O)N1CCC12CC(C(=O)N(C)[C@@H](c1ccc(NC3Cc4ccccc4C3(C)C)cn1)C(F)(F)F)C2 (single isomer, unassigned) [Example 235]  FL hMALT1 enzyme (Homo sapiens)       pIC50      7.22
4  CN(C(=O)c1cc[nH]c(=O)c1)[C@@H](c1ccc(NC2Cc3ccccc3C2(C)C)cc1)C(F)(F)F (single isomer, unassigned) [Example 20]  FL hMALT1 enzyme (Homo sapiens)       pIC50      6.62
5  CNC(=O)N1CC(C(=O)N(C)[C@@H](c2ccc(NC3Cc4ccc(Cl)c(Cl)c4C3)cn2)C(F)(F)F)C1 (single isomer, unassigned) [Example 334]  FL hMALT1 enzyme (Homo sapiens)       pIC50      6.52
6  Cc1nnc(N2CC(C(=O)N(C)[C@@H](c3ccc(NC4Cc5ccc(Cl)c(F)c5C4)cn3)C(F)(F)F)C2)o1 (single isomer, unassigned) [Example 364]  FL hMALT1 enzyme (Homo sapiens)       pIC50      6.92

Next, consider the following compound.
Annotate the compound CN1CCC(C(=O)N(C)[C@@H](c2ccc(NC3Cc4ccccc4C3(C)C)nc2)C(F)(F)F)CC1 (single isomer, unassigned) [Example 144] with its measured pIC50.
6.68

###

# target or test system: MALT1-GS-Ub (6-His-hMALT-1 residues 339-715 fused to ubiquitin) (Homo sapiens, UniProt Q9UDY8);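 further: in vitro MALT1 protease assay: enzyme preincubated with compound 30 min at room temperature, then cleavage of fluorogenic Ac-LVSR-AMC substrate (100 µM) followed by fluorescence every 15 min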
# assay overview: biochemical
Task for the reader: assign each of the following compounds its reported pIC50.
Give bare numbers, as −log10 of the molar value.

In [3]: df
Out[3]:
                                   compound  reported
0  CN([C@@H](c1ccc(NC2Cc3ccccc3C2(C)C)cc1)C(F)(F)F)S(=O)(=O)C1CC1 (single isomer, unassigned) [Example 79]      6.21

Provide pIC50 for all items below, preserving their order.
1. CN(C(=O)C1CCS(=O)(=O)CC1)[C@@H](c1ccc(NC2Cc3ccc(Cl)cc3C2)cc1)C(F)(F)F (single isomer, unassigned) [Example 55]
2. CN(C(=O)CN1CC(=O)NC1=O)[C@@H](c1ccc(NC2Cc3ccccc3C2(C)C)cc1)C(F)(F)F (single isomer, unassigned) [Example 67]
3. CC(=O)N1CC(F)(C(=O)N(C)[C@@H](c2ccc(NC3Cc4ccccc4C3(C)C)cc2)C(F)(F)F)C1 (single isomer, unassigned) [Example 43]

1: 6.28; 2: 6.35; 3: 6.82

###

# target or test system: FL hMALT1 enzyme (Homo sapiens, UniProt Q9UDY8);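 further: Cell-free protease assay: enzyme preincubated with compound 30 min at room temperature, then cleavage of fluorogenic Ac-LVSR-AMC substrate (100 µM) tracked by fluorescence (ex 360/em 460 nm)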
# Sequence (Q9UDY8 1-824): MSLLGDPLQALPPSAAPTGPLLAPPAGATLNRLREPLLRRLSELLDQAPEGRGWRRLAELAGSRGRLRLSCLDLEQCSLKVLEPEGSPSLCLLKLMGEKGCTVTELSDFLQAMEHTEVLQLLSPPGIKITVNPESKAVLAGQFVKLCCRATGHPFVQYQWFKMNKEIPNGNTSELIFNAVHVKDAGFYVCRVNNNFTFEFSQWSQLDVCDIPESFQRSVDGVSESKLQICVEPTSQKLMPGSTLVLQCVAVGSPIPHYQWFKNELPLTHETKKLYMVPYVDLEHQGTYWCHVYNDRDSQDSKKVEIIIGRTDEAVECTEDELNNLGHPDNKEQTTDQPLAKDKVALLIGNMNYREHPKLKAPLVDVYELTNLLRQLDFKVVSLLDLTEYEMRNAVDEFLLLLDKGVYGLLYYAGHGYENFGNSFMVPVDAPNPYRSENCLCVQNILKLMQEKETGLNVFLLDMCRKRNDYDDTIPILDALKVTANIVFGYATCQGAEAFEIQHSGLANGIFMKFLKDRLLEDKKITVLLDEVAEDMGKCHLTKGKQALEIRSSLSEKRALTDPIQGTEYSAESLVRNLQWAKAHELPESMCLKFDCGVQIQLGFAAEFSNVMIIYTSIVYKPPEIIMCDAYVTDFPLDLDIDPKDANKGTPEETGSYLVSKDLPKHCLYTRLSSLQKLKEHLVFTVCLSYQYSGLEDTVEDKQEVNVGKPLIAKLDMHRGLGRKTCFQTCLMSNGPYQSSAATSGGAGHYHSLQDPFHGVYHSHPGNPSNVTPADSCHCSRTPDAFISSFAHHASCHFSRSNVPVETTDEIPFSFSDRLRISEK
# assay overview: biochemical
value type: pIC50
Give bare numbers, as −log10 of the molar value.

// known answers, use as guide
>>> print(df.to_string())
                                   molecule  reported
0  CC(C)c1c(Cl)ccc2c1CC(Nc1ccc([C@H](N(C)C(=O)C3CCS(=O)(=O)CC3)C(F)(F)F)nc1)C2 (some centres unmarked) [Example 369]      7.14
1  CN(C(=O)C1CN(C(=O)C2CCOC2)C1)[C@@H](c1ccc(NC2Cc3ccc(Cl)c(Cl)c3C2)cn1)C(F)(F)F (single isomer, unassigned) [Example 354]      6.00
2  CN(C(=O)C1CN2CCC1CC2)[C@@H](c1ccc(NC2Cc3ccccc3C2(C)C)cn1)C(F)(F)F (single isomer, unassigned) [Example 140]      6.74
3  CNC(=O)C12C3C4C1C1C2C3C41C(=O)N(C)[C@@H](c1ccc(NC2Cc3ccc(Cl)cc3C2)cn1)C(F)(F)F (some centres unmarked) [Example 292]      6.08
4  CN(C(=O)C1CN2CCC1CC2)[C@@H](c1ccc(NC2Cc3ccccc3C2(C)C)cn1)C(F)(F)F (single isomer, unassigned) [Example 138]      6.11
5  CN(C(=O)C1CC2(CCN2)C1)[C@@H](c1ccc(NC2Cc3ccccc3C2(C)C)cn1)C(F)(F)F (single isomer, unassigned) [Example 155]      6.74

Provide pIC50 for all items below, preserving their order.
1. C[C@H](c1ccc(NC2Cc3ccccc3C2(C)C)cc1)N(C)C(=O)C1CCS(=O)(=O)CC1 (single isomer, unassigned) [Example 63]
2. CN(C(=O)CO)[C@@H](c1ccc(NC2Cc3ccc(Cl)c(F)c3C2)cn1)C(F)(F)F (single isomer, unassigned) [Example 366]
3. CN1C(=O)CCC1C(=O)N(C)[C@@H](c1ccc(N[C@H]2Cc3ccccc3C2(C)C)cn1)C(F)(F)F (single isomer, unassigned) [Example 226]
4. CC(=O)N1CC(F)(C(=O)N(C)[C@@H](c2ccc(NC3Cc4ccccc4C3(C)C)cc2)C(F)(F)F)C1 (single isomer, unassigned) [Example 44]
5. CNC(=O)C12CC(C(=O)N(C)[C@@H](c3ccc(N[C@@H]4Cc5ccccc5C4(C)C)cn3)C(F)(F)F)(C1)C2 [Example 203]

6.70
5.44
7.41
7.68
6.92

Provide pIC50 for all items below, preserving their order.
1. CN(C(=O)C1CCS(=O)(=O)CC1)[C@@H](c1ccc(NC2Cc3cccc(C#N)c3C2)cn1)C(F)(F)F (single isomer, unassigned) [Example 257]
2. CN(C(=O)[C@H]1CNC(=O)C1)[C@@H](c1ccc(NC2Cc3ccc(Cl)c(F)c3C2)nc1)C(F)(F)F (single isomer, unassigned) [Example 339]
3. Cc1c(Cl)ccc2c1CC(Nc1ccc([C@H](N(C)C(=O)C3CCS(=O)(=O)CC3)C(F)(F)F)nc1)C2 (single isomer, unassigned) [Example 372]
4. CN(C(=O)c1cnco1)[C@@H](c1ccc(NC2Cc3ccccc3C2(C)C)cc1)C(F)(F)F (single isomer, unassigned) [Example 4]
5. COc1cccc2c1CC(Nc1ccc([C@H](N(C)C(=O)C3CCS(=O)(=O)CC3)C(F)(F)F)nc1)C2 (single isomer, unassigned) [Example 178]
6. CC(=O)N1CC(C(=O)N(C)[C@@H](c2ccc(NC3Cc4ccccc4C3(C)C)cc2)C(F)(F)F)C1 (single isomer, unassigned) [Example 6]

[5.70, 7.62, 7.72, 7.47, 6.59, 7.80]
